Cited source for all entries: ChEMBL document CHEMBL1201862

# GI50 annotations
Test system: HCT-116
Experiment: NCI tumour cell line growth inhibition, 48 h
Activity calls are given as the source filed them. Cut-off read from the data, not from the text of the source: active = GI50 up to about 1.1 µM and inactive = higher.
measured_quantity: GI50

molecule: COc1ccc(Oc2ccccc2N)cc1
measured_quantity: GI50
assay_value: 17.2 µM (inactive)
--
molecule: COC1(OC)C2(Cl)C3=CCCC=C3C1(Cl)C(Cl)=C2Cl
measured_quantity: GI50
assay_value: 17.1 µM (inactive)
--
molecule: CC(=O)Oc1ccc(/C=C/C(=O)NCCOC(=O)/C=C/c2ccc(OC(C)=O)c(OC(C)=O)c2)cc1OC(C)=O
measured_quantity: GI50
assay_value: 14.5 µM (inactive)
--
molecule: Cc1cc(=O)[nH]c(-n2[nH]c3c(c2=O)CCCC3)n1
measured_quantity: GI50
assay_value: 41.9 µM (inactive)
--
molecule: O=[N+]([O-])c1cccc([N+](=O)[O-])c1S(=O)(=O)c1ccccc1
measured_quantity: GI50
assay_value: 1.89 µM (inactive)
--
molecule: COc1cc(/C=C/c2ccc(S(N)(=O)=O)cc2)cc(OC)c1
measured_quantity: GI50
assay_value: 14.5 µM (inactive)
--
molecule: Cc1nc2ccc(S(=O)(=O)Nc3ccccn3)cc2c(=O)n1NS(=O)(=O)c1ccccn1
measured_quantity: GI50
assay_value: > 100 µM (inactive)
--
molecule: COC(=O)C1CCC(=O)N1CN(C(C)=O)c1ccccc1 (stereo not drawn)
measured_quantity: GI50
assay_value: > 100 µM (inactive)
--
molecule: C/C(=N/OCCC(=O)O)C1CC1
measured_quantity: GI50
assay_value: > 100 µM (inactive)
--
molecule: Cc1ccccc1-c1c(N)nc(N)nc1C(=O)Nc1nccs1
measured_quantity: GI50
assay_value: > 100 µM (inactive)
--
molecule: Cc1ccc(-c2cc(=S)n(-c3ccccc3)c3[nH]c(=S)n(-c4ccccc4)c(=N)c23)cc1
measured_quantity: GI50
assay_value: > 100 µM (inactive)
--
molecule: Cc1cc(OCc2nnc3n2N=C(c2cc(F)c(Cl)cc2Cl)/C(=C/c2ccc(Cl)cc2)S3)ccc1Cl
measured_quantity: GI50
assay_value: 12.8 µM (inactive)
--
molecule: O=C1OC(c2ccccc2)=N/C1=C\c1c(O)cc(O)cc1O
measured_quantity: GI50
assay_value: 96.6 µM (inactive)
--
molecule: CC(C)(CN)SCc1ccccc1
measured_quantity: GI50
assay_value: > 100 µM (inactive)
--
molecule: Nc1ccc2nc3ccc(=O)cc-3n(-c3ccccc3)c2c1
measured_quantity: GI50
assay_value: 34.4 µM (inactive)
--
molecule: CCCCC1=C(C(=O)N2CCOCC2)C2(OCCO2)C1Cl (stereo not drawn)
measured_quantity: GI50
assay_value: 41.7 µM (inactive)
--
molecule: COC(=O)c1cc(C(=CCC[C@H]2CC[C@@]3(C)C(CCC4C3CC[C@@]3(C)C4CC[C@@H]3C(C)CCCC(C)C)C2)c2cc(Cl)c(O)c(C(=O)OC)c2)cc(Cl)c1O (stereo partly drawn)
measured_quantity: GI50
assay_value: > 10 µM (inactive)
--
molecule: Cc1cc(C)n(CN(Cn2nc(C)cc2C)c2ccc(N(Cn3nc(C)cc3C)Cn3nc(C)cc3C)cc2)n1
measured_quantity: GI50
assay_value: 17.5 µM (inactive)

###

System: MDA-N
Experiment: NCI tumour cell line growth inhibition, 48 h
Calls of active or inactive are those of the source. Cut-off read from the data, not from the text of the source: active = GI50 up to about 1.1 µM and inactive = higher.
Outcome codes: t (active), f (inactive)

compound: CC(=O)C(=[N+]=[N-])C(=O)N1CCOC1=O
class_assignment: f
--
compound: COc1ccc(NC(=O)Oc2cc(C)c3ccc(=O)cc-3o2)c(OC)c1.COc1ccc(NC(=O)Oc2ccc3c(C)cc(=O)oc3c2)c(OC)c1
class_assignment: f
--
compound: CCC1=[N+]([O-])C(C)(C)NC1(C)C
class_assignment: f
--
compound: CC(=O)N1C(C(=O)NNc2ccccc2)CSC1c1ccccc1 (stereo not given)
class_assignment: f
--
compound: COC(=O)C(O)P(=O)(OC)OC (stereo not given)
class_assignment: f
--
compound: CCN(CC)C(=S)SS(=O)(=O)c1ccc(C)cc1
class_assignment: f
--
compound: CC(C)(CO)CNc1cc(=O)[nH]c(N)n1
class_assignment: f
--
compound: O=[N+]([O-])c1ccc2nc(-c3ccccn3)c(-c3ccccn3)nc2c1
class_assignment: f
--
compound: CCC1CN2CCc3c([nH]c4ccccc34)[C@@](C(=O)OC)(c3cc4c(cc3OC)N(C)C3C(O)(C(=O)OC)C(C(=O)OC)C5(CC)C=CCN6CCC43C65)C[C@@H](C2)[C@@H]1C(C)(C)C (stereo not given in full)
class_assignment: t
--
compound: O=C(c1no[n+]([O-])c1C(=O)c1csc2ccccc12)c1csc2ccccc12
class_assignment: f
